# target_or_test_system: recombinant human 5-HT4 receptor (Homo sapiens, UniProt Q13639)
# Sequence (Q13639 whole entry): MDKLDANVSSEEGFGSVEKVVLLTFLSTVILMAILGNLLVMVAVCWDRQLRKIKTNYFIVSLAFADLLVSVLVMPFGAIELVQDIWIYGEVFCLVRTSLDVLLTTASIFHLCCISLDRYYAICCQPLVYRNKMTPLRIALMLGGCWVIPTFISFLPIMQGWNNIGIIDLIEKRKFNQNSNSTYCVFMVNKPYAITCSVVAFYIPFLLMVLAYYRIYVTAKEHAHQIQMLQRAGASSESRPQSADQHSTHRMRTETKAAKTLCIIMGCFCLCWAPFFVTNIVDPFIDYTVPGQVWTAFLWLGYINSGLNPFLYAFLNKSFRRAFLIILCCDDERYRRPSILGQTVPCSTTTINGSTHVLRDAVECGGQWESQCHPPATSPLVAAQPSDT
# test_method_notes: Determination of EC50 values for 5-HT4 receptor (CHO cells, pCRE-Luc reporter)
# test_settings: luciferase reporter, 4 hours incubation, read-out: 5-HT4 receptor agonistic binding in-vitro EC50
pEC50: −log10 of the molar value. Counter-ions that a name gives are not always drawn.
property_label: pEC50

// solved cases for pEC50 follow
Nc1c(Cl)cc(C(=O)NCC2C3CN(CC4CCC4)CC23)c2c1CCO2 (stereo not drawn) [Example 22, oxalate]    8.30 to 8.96
Cc1cc2c(N)c(Cl)cc(C(=O)NCC3(F)CCN(CC(C)(C)O)CC3)c2o1.O=C(O)C(O)C(O)C(=O)O [Example 53]    7.70 to 8.00
CC(C)(O)CN1CCC(F)(CNC(=O)c2cc(Cl)c(N)c3c2OCCC3)CC1 [Example 43]    8.30 to 8.96
CC(C)(F)CN1CCC(F)(CNC(=O)c2cc(Cl)c(N)c3c2OCCC3)CC1 [Example 57]    8.00 to 8.29
CC(C)(O)CN1CCC(CNC(=O)c2cc(Cl)c(N)c3c2OCCC3)CC1 [Example 41]    7.70 to 8.00

Shift focus to the following entry.
*Q* Identify measured pEC50 corresponding to CC(C)(O)CN1CCC(CNC(=O)c2cc(Cl)c(N)c3c2OCCC3)CC1 [Example 40]
*A* ≥ 9.00
